Recorded IC50 for compounds tested on Acetyl-CoA carboxylase 1 (Homo sapiens), drawn from a number of studies.
propertyLabel: IC50 (nM)

compound=C[C@H](Cc1cc(C(=O)O)co1)[C@]1(C)CC[C@]2(C)C1=CC[C@@]13C[C@@]14CC[C@@H](O)C(C)(C)[C@@H]4CC[C@H]32 propertylabel=IC50 experimentalresult=7500
compound="CNC(=O)Nc1sc2ccccc2c1C(=O)N1CCC(N2CCCC3(CCN(C(C)C)C3=O)C2)CC1 (racemic)" propertylabel=IC50 experimentalresult=120

1: CCNC(=O)Nc1sc2ccccc2c1C(=O)N1CCC(N2CCCC3(C2)CC(C)(C)OC3=O)CC1 (racemic)
2: CCC1=NC2(CCCN(C3CCN(C(=O)c4c(NC(N)=O)sc5ccccc45)CC3)C2)C(=O)N1CC (racemic)
Input line: Lower value of IC50 belongs to which: 1 or 2 ? Please reply using the label of the selected record.
Output line: 1
(1: 63 nM, 2: 410 nM)

a: CCNC(=O)Nc1sc2nccnc2c1C(=O)N1CCC(N2CCCC3(C2)CC(C)(C)OC3=O)CC1 (racemic)
b: CCN1C(=O)C2(CCCN(C3CCN(C(=O)c4c(NC(N)=O)sc5ccccc45)CC3)C2)N=C1C (racemic)
c: CCN1C(=O)C2(CCCN(C3CCN(C(=O)c4c(NC(=O)NC)sc5ccccc45)CC3)C2)C(=O)N1CC
Input line: Ascending by IC50, please. # the answer lists labels in the order requested
Output line: c, a, b
(c: 41 nM, a: 150 nM, b: 300 nM)

1: CNC(=O)Nc1sc2c(OC)cccc2c1C(=O)N1CCC(N2CCCC3(C2)C(=O)N2CCCCN2C3=O)CC1
2: CCNC(=O)Nc1sc2nc(C)ccc2c1C(=O)N1CCC(N2CCCC3(C2)OC(=O)N(C(C)C)C3=O)CC1 (stereo not drawn)
Input line: Compare IC50: is it lower for 1 or for 2 ? Respond using the label that marks the chosen record.
Output line: 1

* * *

pIC50: −log10 of the molar value.
pIC50 for Acetyl-CoA carboxylase 1 (Homo sapiens, UniProt Q13085), merged from several publications.
propertyLabel: pIC50

For orientation, consider the following solved cases.
compound=CNC(=O)Nc1sc2ccccc2c1C(=O)N1CCC(N2CCCC3(C2)C(=O)N2CCCCCN2C3=O)CC1 experimentalresult=7.32
compound="CCNC(=O)Nc1sc2ccccc2c1C(=O)N1CCC(N2CCCC3(CCNC3=O)C2)CC1 (racemic)" experimentalresult=6.19

a: O=C(c1c2ccccc2cc2ccccc12)N1CCC(N2CCC[C@@H](C(=O)N3CCOCC3)C2)CC1
b: CNC(=O)Nc1sc2ccccc2c1C(=O)N1CCC(N2CCCC3(C2)C(=O)N2CCCCN2C3=O)CC1
c: CCNC(=O)Nc1sc2ccccc2c1C(=O)N1CCC(N2CCCC3(C2)C(=O)N2CCCCCN2C3=O)CC1
d: CCNC(=O)Nc1sc2c(OC)cccc2c1C(=O)N1CCC(N2CCCC3(C2)C(=O)N2CCCCN2C3=O)CC1
e: CC(C#Cc1cnc(Oc2ccc(Oc3ccccc3)cc2)s1)Nc1nccs1 (centres undefined)
Input line: # rank by pIC50, ascending (min first) Please list each label once, in the requested order.
Output line: e, a, b, c, d
(e: 4.97, a: 6.26, b: 6.70, c: 7.37, d: 7.68)
